- subject of test: T1, EsCas13d, nuclease-dead (Eubacterium siraeum, UniProt B0MS50, R295A;H300A;R849A;H854A)
- T1 sequence: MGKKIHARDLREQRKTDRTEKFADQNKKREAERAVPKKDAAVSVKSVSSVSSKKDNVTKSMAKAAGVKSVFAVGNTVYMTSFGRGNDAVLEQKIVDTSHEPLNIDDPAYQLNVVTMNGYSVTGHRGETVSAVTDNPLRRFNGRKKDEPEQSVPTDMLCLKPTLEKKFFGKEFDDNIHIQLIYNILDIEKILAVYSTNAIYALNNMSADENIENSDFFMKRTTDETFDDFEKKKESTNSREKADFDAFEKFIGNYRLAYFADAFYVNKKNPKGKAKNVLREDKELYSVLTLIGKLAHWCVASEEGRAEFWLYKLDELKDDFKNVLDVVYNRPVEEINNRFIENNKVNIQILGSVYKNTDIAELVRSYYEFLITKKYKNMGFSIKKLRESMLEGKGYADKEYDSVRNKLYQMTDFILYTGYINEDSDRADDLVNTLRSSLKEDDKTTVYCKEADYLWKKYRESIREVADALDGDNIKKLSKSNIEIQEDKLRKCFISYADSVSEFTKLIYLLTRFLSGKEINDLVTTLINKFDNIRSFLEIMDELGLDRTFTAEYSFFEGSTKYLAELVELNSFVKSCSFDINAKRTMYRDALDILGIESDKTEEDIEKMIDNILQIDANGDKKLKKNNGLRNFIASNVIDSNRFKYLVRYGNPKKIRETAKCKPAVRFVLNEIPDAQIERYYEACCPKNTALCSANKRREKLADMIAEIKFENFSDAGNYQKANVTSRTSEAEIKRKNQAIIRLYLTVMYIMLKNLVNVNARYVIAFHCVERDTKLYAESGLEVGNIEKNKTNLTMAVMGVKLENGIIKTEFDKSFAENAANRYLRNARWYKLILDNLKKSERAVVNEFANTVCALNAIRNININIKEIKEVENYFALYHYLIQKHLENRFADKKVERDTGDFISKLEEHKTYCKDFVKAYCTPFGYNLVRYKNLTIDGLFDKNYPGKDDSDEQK
- test protocol: crRNA (strand 1, pre-loaded); Mg2+; 40 mM Tris-HCl pH 7.5, 150 mM NaCl, 6 mM MgCl2, 1 mM DTT, 0.1% Tween-20, 0.2 mg/ml BSA; 25 C; 10 min per concentration, then washed
- stated conditions: tags: His6-TwinStrep-SUMO cleaved; N-terminal SNAP kept (SNAP-Surface 488); label: 3' end held by stalled T7 RNA polymerase
property label: Kd (nM)
// units = nM; emit number, no label

Q: Any idea what Kd was measured for target 1 U11G,C21U (mixed) RNA 1: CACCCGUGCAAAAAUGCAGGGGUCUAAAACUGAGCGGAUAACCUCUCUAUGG RNA 2: GGGAAUGGAUCCACAUCUACGAAUUCGUACUAUAGAGAGGGUAUCCGCUCACCGAGAUCGGAAGAGCACACGU ?
Ans: 9.4

Cited source: paper PMC10786891
